Sourced from ChEMBL document CHEMBL4350986

# ASSAY NOTES: Half life of the compound
# Type: physicochemical
PROPERTY LABEL: half-life (min)
Just the number please, in min, no unit attached.

[in] Find the recorded half-life belonging to CC(C)[C@]12O[C@H]1[C@@H]1O[C@]13[C@]1(O[C@H]1C[C@H]1C4=C(CC[C@@]13C)C(=O)OC4)[C@@H]2OCOP(=O)([O-])[O-].[Na+].[Na+] [MINNELIDE] and report it.
[out] 2
